B1: Kinesin-like protein KIF16B, residues 1213 to 1273; numbered along this chain, Q96L93 (parent)
chain: ETWTVFRRYSRFREMHKTLKLKYAELAALEFPPKKLFGNKDERVIAERRSHLEKYLRDFFS

- Variants of: B1
- Protocol: abundance fitness (aPCA) (normalised: wild type 0, dead -1); higher = more abundant; growth selection in yeast, the domain comes from the species named
- Conditions: Homo sapiens
Endpoint label: abundance fitness
Numbers only.

S10K: -0.317

Here are 2 variants. What values of abundance fitness were reported for them?
1. A28T
2. F60Q

### Response
1: 0.009; 2: -1.01
